assay: inhibitors of mutant huntingtin aggregation, primary screen, imaging, exon1htt(103Q)mCFP cells, high-content imaging (AID 483); details: exon1htt(103Q)mCFP cell line, aggregate imaging, at 2 µM; measured here: cell count, toxicity;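 note: compound exposure lasted 3 days before fixation; percent of the per-plate median nuclei count of sample wells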
Measurement name: nuclei count (%)
Give bare numbers, in %.

                                   compound  meas_value
0  O=C(O)CC1SC(=Nc2cccc(C(F)(F)F)c2)NC1=O (stereo unspecified)        95.3
1  CC(=O)OCC(=O)[C@@]1(O)[C@H](C)C[C@H]2[C@@H]3CCC4=CC(=O)C=C[C@]4(C)[C@@]3(F)[C@@H](O)C[C@@]21C        45.5
2             O=C(c1ccc2c(c1)OCCO2)N1CCCCC1         106
3  COc1ccc(OC)c(C2=Nn3c(nnc3C3CCCCC3)SC2)c1        77.4
4  CCOC(=O)c1[nH]c2cc(OC)c(OC)cc2c1NC(=O)C(C)N1CCN(Cc2ccccc2)CC1 (stereo unspecified)         106
5  CC(C)(C)NCC(O)c1cc(O)cc(O)c1 (stereo unspecified)        89.3
6        COc1cc(/C=N/n2c(C)nnc2C)cc(OC)c1OC         109
7               CCN(CC)C(=O)c1ccc(O)c(OC)c1        92.4
8  CN1CCCN=C1COC(=O)C(O)(c1ccccc1)C1CCCCC1 (stereo unspecified)         107
9              CCCCOc1ccccc1C(=O)NCCCC(=O)O         119

Batch: nuclei count for all items listed.
1. CN(C)CCN(Cc1ccccc1)c1ccccn1
2. CC(C)CCNC(=O)[C@H](CC(C)C)NC(=O)[C@H]1O[C@@H]1C(=O)O
3. CCCCc1nc(NCCN2CCOCC2)c(C#N)c2c1COC(C)(C)C2
4. Cc1ccc(C2C3CN(C(C)C)CC=C3C(C#N)=C(N)C2(C#N)C#N)cc1 (stereo unspecified)

### Response
1: 98.3; 2: 98.3; 3: 122; 4: 99.1

Batch: nuclei count for all items listed.
1. Cc1cc(-c2ccc(F)cc2)nc2cc(C(N)=O)nn12
2. O=C(NC1CCS(=O)(=O)C1)N1CCCCC1 (stereo unspecified)
3. Cc1c(/C(O)=C2/C(=O)C(=O)N(CCN3CCOCC3)C2c2cccnc2)cnn1-c1ccccc1 (stereo unspecified)
4. c1ccc(-c2ccc(C(c3ccccc3)n3ccnc3)cc2)cc1 (stereo unspecified)
5. COC(=O)/C=c1/s/c(=C(/C#N)C(=O)N2CCOCC2)n(-c2ccccc2)c1=O
6. N#CC1=C(N)OC2=C(C(=O)CCC2)C1CCc1ccccc1 (stereo unspecified)
7. Cn1ccnc1SCCC#N
8. Cc1cccc(C)c1NC(=O)C1CCCCN1C (stereo unspecified)

### Response
99.3
106
102
91.4
98.4
110
110
108

Batch: nuclei count for all items listed.
1. Cc1ccc(/C(O)=C2/C(=O)C(=O)N(Cc3ccco3)C2c2cccs2)cc1 (stereo unspecified)
2. CN(C)c1nc(OCCOC(=O)Nc2ccc(Cl)cc2Cl)nc(N(C)C)n1
3. O=C1NC(c2cccs2)Nc2ccccc21 (stereo unspecified)
4. Cc1nnc(SCC(=O)N2CCC(C(N)=O)CC2)s1
5. O=C(O)c1cc(-c2ccccc2)nc2ccccc12

### Response
1: 111; 2: 56.4; 3: 130; 4: 87.6; 5: 92.2
